Target: UniProt P04150
Assay: Inhibition of Dexamethasone induced GR transactivation of MMTV luciferase in HeLa cells
Assay type: functional, cell-based
pIC50: −log10 of the molar value.
pIC50 values, listed per item
observation type: pIC50

>>> numeric_result("CC1(C)C=C(CSCCc2ccccc2)c2cc(-c3cccc(O)c3Cl)ccc2N1")
6.59
>>> numeric_result("COc1ccc(F)cc1-c1ccc2c(c1)C(CSCCc1ccccc1)=CC(C)(C)N2")
7.35

----------
pIC50 values, listed per item
Target: Glucocorticoid receptor (Homo sapiens)
Sequence (P04150 whole entry): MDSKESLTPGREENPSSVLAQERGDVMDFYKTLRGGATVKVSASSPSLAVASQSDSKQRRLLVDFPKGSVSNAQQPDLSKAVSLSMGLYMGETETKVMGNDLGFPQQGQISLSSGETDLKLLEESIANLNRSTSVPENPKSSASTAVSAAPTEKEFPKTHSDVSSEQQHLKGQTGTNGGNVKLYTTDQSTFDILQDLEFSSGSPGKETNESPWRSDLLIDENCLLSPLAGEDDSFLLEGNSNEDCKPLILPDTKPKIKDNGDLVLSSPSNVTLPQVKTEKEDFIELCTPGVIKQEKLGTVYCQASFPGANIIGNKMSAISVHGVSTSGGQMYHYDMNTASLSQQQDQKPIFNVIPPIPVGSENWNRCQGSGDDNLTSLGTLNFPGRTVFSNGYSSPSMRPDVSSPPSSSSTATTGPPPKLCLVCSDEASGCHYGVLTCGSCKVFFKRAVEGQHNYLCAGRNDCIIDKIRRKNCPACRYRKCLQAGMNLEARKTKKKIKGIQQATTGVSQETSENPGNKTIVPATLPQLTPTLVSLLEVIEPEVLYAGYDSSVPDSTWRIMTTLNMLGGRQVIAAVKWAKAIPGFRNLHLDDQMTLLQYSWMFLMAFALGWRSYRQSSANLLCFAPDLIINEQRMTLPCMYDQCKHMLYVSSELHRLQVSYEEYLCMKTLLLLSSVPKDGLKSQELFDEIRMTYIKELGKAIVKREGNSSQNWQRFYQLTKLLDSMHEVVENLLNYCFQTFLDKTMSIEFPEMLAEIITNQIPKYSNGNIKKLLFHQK
Experiment: Binding affinity to human GR
pIC50: −log10 of the molar value.
observation type: pIC50

>>> result("COc1ccccc1-c1ccc2c(c1)C(CSC(C)=O)=CC(C)(C)N2")
"< 5.70"
>>> result("C=CCSCC1=CC(C)(C)Nc2ccc(-c3ccccc3[N+](=O)[O-])cc21")
"< 5.70"
>>> result("C=CCOCC1=CC(C)(C)Nc2ccc(-c3ccccc3OC)cc21")
"< 5.70"
>>> result("COc1ccccc1-c1ccc2c(c1)C(CSC1CCCCC1)=CC(C)(C)N2")
6.43
>>> result("COc1ccccc1-c1ccc2c(c1)C(CSCc1ccccc1)=CC(C)(C)N2")
"< 5.70"
>>> result("C=CCSCC1=CC(C)(C)Nc2ccc(-c3ccccc3C)cc21")
"< 5.70"
>>> result("C=CCNCC1=CC(C)(C)Nc2ccc(-c3ccccc3OC)cc21")
"< 5.70"
>>> result("C=CCSCC1=CC(C)(C)Nc2ccc(-c3ccccc3)cc21")
"< 5.70"
>>> result("C=CCSCC1=CC(C)(C)Nc2ccc(-c3cc(F)ccc3OC)cc21")
6.72
>>> result("COc1ccc(F)cc1-c1ccc2c(c1)C(CSCCc1ccccc1)=CC(C)(C)N2")
7.08
>>> result("COc1ccccc1-c1ccc2c(c1)C(CSCCC(C)C)=CC(C)(C)N2")
6.15
